Values were extracted from patent US10717716B2.

molecular target: human recombinant HDAC6 (Homo sapiens, UniProt Q9UBN7); construct: purchased Calbiochem 382180; assay: HDAC6 enzyme activity inhibition assay (HDAC Fluorimetric Drug Discovery Kit); assay type: biochemical; conditions: human recombinant HDAC6, same protocol as HDAC1; read-out: HDAC6
Sequence (Q9UBN7 whole entry): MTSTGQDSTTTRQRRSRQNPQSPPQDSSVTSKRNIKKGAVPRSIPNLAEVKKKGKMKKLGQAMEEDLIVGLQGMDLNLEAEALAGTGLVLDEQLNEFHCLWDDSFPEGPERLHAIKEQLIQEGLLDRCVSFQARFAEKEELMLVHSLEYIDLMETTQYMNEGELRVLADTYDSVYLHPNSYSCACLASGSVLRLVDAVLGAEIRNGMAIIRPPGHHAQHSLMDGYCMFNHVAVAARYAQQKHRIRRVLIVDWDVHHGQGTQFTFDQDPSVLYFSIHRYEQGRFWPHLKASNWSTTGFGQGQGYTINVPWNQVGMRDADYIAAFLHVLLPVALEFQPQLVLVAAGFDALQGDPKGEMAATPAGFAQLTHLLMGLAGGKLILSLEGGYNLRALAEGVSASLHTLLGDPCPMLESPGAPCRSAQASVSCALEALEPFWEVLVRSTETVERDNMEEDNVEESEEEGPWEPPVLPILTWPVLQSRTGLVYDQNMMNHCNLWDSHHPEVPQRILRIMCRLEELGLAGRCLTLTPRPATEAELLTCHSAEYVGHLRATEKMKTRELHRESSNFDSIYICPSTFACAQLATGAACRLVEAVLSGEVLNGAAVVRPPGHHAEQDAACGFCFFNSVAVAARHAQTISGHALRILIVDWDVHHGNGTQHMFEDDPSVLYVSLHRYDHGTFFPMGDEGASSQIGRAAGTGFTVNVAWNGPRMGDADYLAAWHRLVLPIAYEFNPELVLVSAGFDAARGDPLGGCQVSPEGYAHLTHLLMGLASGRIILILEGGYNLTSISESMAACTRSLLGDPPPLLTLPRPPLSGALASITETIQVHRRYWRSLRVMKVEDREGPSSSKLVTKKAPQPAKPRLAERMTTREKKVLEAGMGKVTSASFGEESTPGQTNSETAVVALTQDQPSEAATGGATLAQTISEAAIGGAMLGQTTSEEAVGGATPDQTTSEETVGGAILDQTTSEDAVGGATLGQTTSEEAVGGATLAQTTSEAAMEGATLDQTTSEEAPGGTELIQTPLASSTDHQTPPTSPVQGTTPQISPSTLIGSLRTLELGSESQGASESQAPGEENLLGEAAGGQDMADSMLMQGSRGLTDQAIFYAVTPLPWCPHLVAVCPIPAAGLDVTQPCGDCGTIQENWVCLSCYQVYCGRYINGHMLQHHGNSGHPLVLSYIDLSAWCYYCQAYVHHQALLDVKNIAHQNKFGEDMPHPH
observable: IC50 (nM)

For orientation, consider the following solved cases.
[
  {
    "molecule": "CN(C)CCNC(=O)N(Cc1ccc(-c2nnc(C(F)F)o2)cc1)c1ccccc1 [Compound 21577]",
    "IC50 [nM]": 66
  },
  {
    "molecule": "CC(C)(C)OC(=O)N1CC2(CCN(C(=O)N(Cc3ccc(-c4nnc(C(F)(F)F)o4)cc3)c3ccccc3)CC2)C1 [Compound 21416]",
    "IC50 [nM]": 1590
  },
  {
    "molecule": "O=C(N1CCS(=O)(=O)CC1)N(Cc1ccc(-c2nnc(C(F)F)o2)cc1F)c1ccc(F)c(Cl)c1 [Compound 21531]",
    "IC50 [nM]": 13
  }
]

A = O=C(N1CCS(=O)(=O)CC1)N(Cc1ccc(-c2nnc(C(F)F)o2)cc1F)c1cccs1 [Compound 22020]
B = O=C(N1CCOCC1)N(Cc1ccc(-c2nnc(C(F)F)o2)cn1)c1cccc(F)c1 [Compound 21843]
## Task Between item A and item B , which reported IC50 is smaller? Choose, then provide that item's label.
## Result B
(B: 22 nM, A: 138 nM)
